Data origin: patent US20210113615A1

target or test system: T1, Bcl-2 (BCL-2 sequence as tested in Example 5) (Homo sapiens (Human), UniProt P10415 1-207)
T1 construct: It was immobilized in SPR
T1 sequence (P10415 1-207 limits assumed): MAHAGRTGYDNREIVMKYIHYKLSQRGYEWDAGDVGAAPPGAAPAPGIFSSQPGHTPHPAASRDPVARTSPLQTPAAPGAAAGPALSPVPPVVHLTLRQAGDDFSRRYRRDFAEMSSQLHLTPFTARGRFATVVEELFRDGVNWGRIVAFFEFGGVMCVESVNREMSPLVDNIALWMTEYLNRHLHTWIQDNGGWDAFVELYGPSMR
procedure text: SPR, Biacore 8K; Bcl-2 immobilized, Des3 variant injected in serial dilutions
measure name: Kd (nM)

INSERT INTO results (binder, unit_of_measurement, observed_result) VALUES
  ('LD3 (lead design 3: Bcl-XL binder designed on human apolipoprotein E4, PDB ID 1LE4 chain A) (designed binder, No single sentence states these identities; also called Des3; DES3) HHHHHHQRWELALGRFLEYLSWVSTLSEQVQEELLSSQVTQELRALMDETMKELKAYKSELEEQLTPVAEETRARLSKELQAAQARLGADMEDVRGRLVQYRGEVQAMLGQSTEELRVRLASHLIALQLRLIGDAFDLQKRLAVYQAGA', 'nM', 0.8),
  ('Des3a (slightly weaker affinity binder, GLU124ALA) (designed binder) QRWELALGRFLAYLSWVSTLSEQVQEELLSSQVTQELRALMDETMKELKAYKSELEEQLTPVAEETRARLSKELQAAQARLGADMEDVRGRLVQYRGEVQAMLGQSTEELRVRLASHLIALQLRLIGDAFDLQKRLAVYQAGA', 'nM', 16.8),
  ('Des3b (medium affinity binder, LEU235ALA) (designed binder) QRWELALGRFLEYLSWVSTLSEQVQEELLSSQVTQELRALMDETMKELKAYKSELEEQLTPVAEETRARLSKELQAAQARLGADMEDVRGRLVQYRGEVQAMLGQSTEELRVRLASHLIALQARLIGDAFDLQKRLAVYQAGA', 'nM', 64.1),
  ('Des3c (weakest affinity Des3 binder, ASP240ALA) (designed binder) QRWELALGRFLEYLSWVSTLSEQVQEELLSSQVTQELRALMDETMKELKAYKSELEEQLTPVAEETRARLSKELQAAQARLGADMEDVRGRLVQYRGEVQAMLGQSTEELRVRLASHLIALQLRLIGAAFDLQKRLAVYQAGA', 'nM', 147);
